test system: MAP4K3; details: concentration: 1 μM, replicates: in singlicate; n = 1;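 note: KINOMEscan kinase panel screen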
We label by threshold. Values of %Inh strictly beneath 5% are Fulfilled. Values of 5% and up are Not fulfilled.

>>> discrete_label("CS(=O)(=O)c1cccc(CNc2nc(Nc3ccc4c(c3)CCC(=O)N4)ncc2C(F)(F)F)c1")
"Fulfilled"

Is it true that %Inh reported for Cc1ccc(NC(=O)c2ccnc(N3CCCCC3)c2)cc1-c1ccc(C(=O)NCC2CC2)cc1 [GW775610] is less than 5%?
Not fulfilled

* * *

In this section we review reported %Inh values for a set of compounds.
test system: DYRK1B; conditions: concentration: 1 μM, replicates: in singlicate; n = 1
Provide only the numeric value, understood in %.

Example entries and their recorded answers appear below.
>>> value_reported("COC(=O)Nc1nc2ccc(Oc3ccc(CC(=O)Nc4cc(C(F)(F)F)ccc4F)cc3)cc2[nH]1")
8
>>> value_reported("Cc1ccc(-c2ccc3occ(-c4ccc(S(C)=O)cc4)c3c2)nn1 (stereo not drawn)")
33
>>> value_reported("CN(C)c1ncnc2nc[nH]c12")
39
>>> value_reported("COc1cccc(-c2nc(-c3ccccc3)[nH]c2-c2ccncc2)c1")
20
>>> value_reported("COc1cc(Nc2nccc(N3CCC(NC(=O)Nc4ccc5c(c4)OCO5)C3)n2)cc(OC)c1OC (stereo not drawn)")
0

As a next step, examine the compound that follows.
// returns reported %Inh for input `COc1cccc(NC(=O)NCCNc2ccnc(Nc3ccc(F)cc3)n2)c1`
25

* * *

system: TSSK3; conditions: concentration: 1 μM, replicates: in singlicate; n = 1
Reported Property: %Inh (%)
Provide only the numeric value, understood in %.

>>> value_reported("O=C(Nc1n[nH]c2cc(-c3cccs3)ccc12)C1CC1")
7
>>> value_reported("Fc1cc(Cl)ccc1Nc1ccnc2cc(-c3ccc(CN4CCOCC4)o3)ccc12")
3
>>> value_reported("CC(C)NCC(Cc1ccccc1)NC(=O)c1cc(Br)c(-c2ccnc3[nH]ccc23)s1.Cl.Cl (stereo not drawn)")
2
>>> value_reported("Cc1cc(-c2c(-c3ccc(F)cc3)ncn2CCCN2CCOCC2)nc(N)n1")
0
>>> value_reported("CC(C)c1nc(-c2ccc(F)c(NS(=O)(=O)c3c(F)cccc3F)c2)c(-c2ccnc(Nc3ccc(N4CCOCC4)nc3)n2)s1")
24

As a next step, examine the compound that follows.
// returns reported %Inh for input `COc1cccc(-c2nc(-c3ccccc3)[nH]c2-c2ccncc2)c1`
4

* * *

test system: JAK1(JH1domain-catalytic); details: concentration: 1 μM, replicates: in singlicate; n = 1
Reported Property: %Inh (%)
Provide only the numeric value, understood in %.

Example entries and their recorded answers appear below.
>>> value_reported("O=C(Nc1n[nH]c2cc(-c3cccs3)ccc12)C1CC1 [SB-731284]")
0
>>> value_reported("c1ccc(Oc2ccc(Nc3ccnc4cc(-c5ccc(CN6CCCCC6)o5)ccc34)cc2)nc1 [GW567143]")
0
>>> value_reported("COC(=O)Nc1nc2ccc(Oc3ccc(NC(=O)Nc4cc(C(F)(F)F)ccc4F)cc3)cc2[nH]1.Cl [GW654607]")
69

// returns reported %Inh for input CC(C)NCC(Cc1ccccc1)NC(=O)c1cc(Br)c(-c2ccnc3[nH]ccc23)s1.Cl.Cl (stereo not drawn) [GSK1383281]
35

// returns reported %Inh for input Nc1cccc(-c2ccc3c(N)n[nH]c3c2)c1 [GSK2193613]
0

// returns reported %Inh for input Cc1cc(-c2ccnc(Nc3cccc(C#N)c3)n2)cc(C)c1O [GSK1440913]
0

// returns reported %Inh for input COc1cccc2c(-c3ccncc3)c(-c3ccc(F)cc3)nn12 [GW468513]
0

// returns reported %Inh for input CC(C)c1nc(-c2ccc(F)c(NS(=O)(=O)c3c(F)cccc3F)c2)c(-c2ccnc(Nc3ccc(N4CCOCC4)nc3)n2)s1 [GSK1804250]
17

// returns reported %Inh for input Cc1ccc(O)cc1Nc1ccnc2ccc(C(C)(C)C)cc12 [GW856805]
2
